- measurementProtocol: MALDI MSI of brain sections, mouse model of brain metastasis (MDA231-BrM2-831)
- Format: in vivo, NCr nude mice
- testParameters: female, NCr nude (CrTac:NCr-Foxn1nu), mouse, brain tumor, oral, 35 mg/kg; read-out: MALDI MSI Brain tumors, mean (SD)
quantity: concentration at 2 h (ng/g)
Kindly provide the numeric value in ng/g only, without the unit symbol.

Query: Tell me its concentration at 2 h given `NC(=O)c1cccc2cn(-c3ccc([C@@H]4CCCNC4)cc3)nc12` as the entry.
Reply: 2400

---

- measurementProtocol: in vivo
- testParameters: female, C57BL/6, mouse, brain tumor, oral
quantity: Kp at 2 h
Please reply with the value in numeric form only.

Query: Return value of Kp at 2 h for input O=C(c1cc(Cc2n[nH]c(=O)c3ccccc23)ccc1F)N1CCN(C(=O)C2CC2)CC1 [Olaparib] , no commentary.
Reply: 0.126

Query: For the molecule NC(=O)c1cccc2cn(-c3ccc([C@@H]4CCCNC4)cc3)nc12 [Niraparib] , give its measured Kp at 2 h value.
Reply: 0.893

---

- measurementProtocol: in vivo
- testParameters: female, C57BL/6, mouse, normal brain, oral
quantity: Kp at 2 h
Simply state the number, no unit and no words.

Query: Please give measured Kp at 2 h of the following entry: NC(=O)c1cccc2cn(-c3ccc([C@@H]4CCCNC4)cc3)nc12 [Niraparib]
Reply: 0.08

---

- measurementProtocol: in vivo
- testParameters: female, C57BL/6, mouse, normal brain, oral, 35 mg/kg
- Procedure: Female C57BL/6 mice were inoculated intracranially on the right side of the brain in the right frontal lobe with mouse glioblastoma (GL261) tumor cells (≈ 2 × 10^5) in 3 µL of phosphate-buffered saline for the tumor development. Mice were observed daily for clinical signs, and any mouse meeting predefined criteria for moribund status was euthanized. […] First, the brain tissue partition coefficient Kp, brain was calculated using Eq. (1). […]
quantity: Kp at 24 h
Could you keep your reply to the number by itself?

Query: Look up and report measured Kp at 24 h for this entry: `NC(=O)c1cccc2cn(-c3ccc([C@@H]4CCCNC4)cc3)nc12`
Reply: 0.182

---

- measurementProtocol: MALDI MSI of brain sections, biodistribution in healthy nonhuman primates
- testParameters: male, rhesus monkey, brain parenchyma, oral, 6 mg/kg, mean unbound niraparib concentration in the brain parenchyma, healthy rhesus macaques, estimated from MALDI MSI
- Method: Animals were randomized using the GSK Randomization App 2.0, which is an internal software tool that uses the ‘sample’ function in R to randomly shuffle animal IDs, then assigns them to treatment groups to ensure unbiased allocation. Before each dose, animals were lightly sedated with an intramuscular injection of ketamine (5–10 mg/kg), and a blood sample was drawn. […]
quantity: concentration at 4 h

Query: Name the recorded concentration at 4 h of the molecule listed here: `NC(=O)c1cccc2cn(-c3ccc([C@@H]4CCCNC4)cc3)nc12`
Reply: ~15 ng/g

---

- measurementProtocol: LC-MS/MS bioanalysis of plasma and brain homogenate, mouse model of brain metastasis (MDA231-BrM2-831)
- Format: in vivo, NCr nude mice
- testParameters: female, NCr nude (CrTac:NCr-Foxn1nu), mouse, brain, oral, No BM mice (n = 3); read-out: Group mean (SD) Kp, brain
Would you mind telling me the reported Kp at 2 h of each entry?
Enter a number only.

Query: Look up and report measured Kp at 2 h for this entry: `O=C(c1cc(Cc2n[nH]c(=O)c3ccccc23)ccc1F)N1CCN(C(=O)C2CC2)CC1`
Reply: 0.027

Query: Tell me its Kp at 2 h given `NC(=O)c1cccc2cn(-c3ccc([C@@H]4CCCNC4)cc3)nc12` as the entry.
Reply: 0.171

---

- measurementProtocol: MALDI MSI of brain sections, mouse model of brain metastasis (MDA231-BrM2-831)
- Assay type: in vivo, NCr nude mice
- testParameters: female, NCr nude (CrTac:NCr-Foxn1nu), mouse, whole brain (sections), oral, 35 mg/kg, Brain Metastases; Mouse 1; Fig. 2B; read-out: MALDI MSI Mean Conc., whole brain, individual mouse
quantity: concentration at 2 h
Include the unit after the number when you answer.

Query: Tell me its concentration at 2 h given NC(=O)c1cccc2cn(-c3ccc([C@@H]4CCCNC4)cc3)nc12 [Niraparib] as the entry.
Reply: 430 ng/g

---

- measurementProtocol: MALDI MSI of brain sections, biodistribution in healthy nonhuman primates
- testParameters: male, rhesus monkey, brain (coronal Region 3 sections), oral, 6 mg/kg, MALDI MSI Mean Conc. by brain region, NHP-1; Region 3; 3 sections; Fig. 1B
quantity: concentration at 4 h (ng/g)
Report the value in ng/g with no unit label.

Query: Identify measured concentration at 4 h associated with `NC(=O)c1cccc2cn(-c3ccc([C@@H]4CCCNC4)cc3)nc12`
Reply: 217

---

- measurementProtocol: in vitro
- testParameters: CD1, mouse, brain homogenate, pH 7.4
quantity: fraction unbound at 4 h, 1 µM

Query: Item `O=C(c1cc(Cc2n[nH]c(=O)c3ccccc23)ccc1F)N1CCN(C(=O)C2CC2)CC1` : provide fraction unbound at 4 h, 1 µM
Reply: 0.23

---

- measurementProtocol: in vivo
- testParameters: female, C57BL/6, mouse, normal brain, oral, 35 mg/kg
quantity: Kp uu at 24 h
Number only, no unit.

Query: Input `NC(=O)c1cccc2cn(-c3ccc([C@@H]4CCCNC4)cc3)nc12` , output reported Kp uu at 24 h.
Reply: 0.025

---

- measurementProtocol: in vitro
- testParameters: cynomolgus monkey, brain homogenate (diluted 1:4 [5×] in PBS), pH 7.4
quantity: fraction unbound at 4 h, 1 µM
Number only, no unit.

Query: In one line, give reported fraction unbound at 4 h, 1 µM of the entry `NC(=O)c1cccc2cn(-c3ccc([C@@H]4CCCNC4)cc3)nc12` .
Reply: 0.0361

---

- measurementProtocol: MALDI MSI of brain sections, biodistribution in healthy nonhuman primates
- testParameters: male, rhesus monkey, brain (coronal Region 1 sections), oral, 6 mg/kg, MALDI MSI Mean Conc. by brain region, NHP-1; Region 1; 3 sections; Fig. 1B
quantity: concentration at 4 h (ng/g)
Record the value in ng/g, omitting the unit from your answer.

Query: Supply reported concentration at 4 h belonging to this compound: `NC(=O)c1cccc2cn(-c3ccc([C@@H]4CCCNC4)cc3)nc12`
Reply: 268

---

- measurementProtocol: MALDI MSI of brain sections, biodistribution in healthy nonhuman primates
- testParameters: male, rhesus monkey, brain ventricle, oral, 6 mg/kg, Niraparib Mean Conc. in histological ROI, NHP-1; Ventricle; Fig. 1D
quantity: concentration at 4 h (ng/g)
Provide the reading as a plain figure in ng/g.

Query: Give concentration at 4 h for the following molecule: `NC(=O)c1cccc2cn(-c3ccc([C@@H]4CCCNC4)cc3)nc12`
Reply: 3360

---

- measurementProtocol: Protein binding by rapid equilibrium dialysis, CD1 mouse brain and plasma
- testParameters: plasma (undiluted), pH 7.4
quantity: fraction unbound at 4 h, 1 µM
API note: the answer field is a bare number with no unit suffix.

Query: Annotate the compound `NC(=O)c1cccc2cn(-c3ccc([C@@H]4CCCNC4)cc3)nc12` with its measured fraction unbound at 4 h, 1 µM.
Reply: 0.22

---

- measurementProtocol: MALDI MSI of brain sections, mouse model of brain metastasis (MDA231-BrM2-831)
- Type: in vivo, NCr nude mice
- testParameters: female, NCr nude (CrTac:NCr-Foxn1nu), mouse, whole brain (sections), oral, 35 mg/kg, Brain Metastases; Mouse 2; Fig. 2B; read-out: MALDI MSI Mean Conc., whole brain, individual mouse
quantity: concentration at 2 h (ng/g)
Give the quantity in ng/g, number only.

Query: For the compound NC(=O)c1cccc2cn(-c3ccc([C@@H]4CCCNC4)cc3)nc12 [Niraparib] , give its measured concentration at 2 h value.
Reply: 640

---

- measurementProtocol: in vivo
- testParameters: female, C57BL/6, mouse, brain tumor, oral, 35 mg/kg
quantity: Kp at 24 h
Form field (numeric): enter value without unit.

Query: Look up and report measured Kp at 24 h for this entry: `NC(=O)c1cccc2cn(-c3ccc([C@@H]4CCCNC4)cc3)nc12`
Reply: 0.465

---

- measurementProtocol: MALDI MSI of brain sections, biodistribution in healthy nonhuman primates
- testParameters: male, rhesus monkey, brain (coronal Region 2 sections), oral, 6 mg/kg, MALDI MSI Mean Conc. by brain region, NHP-2; Region 2; 3 sections; Fig. 1B
quantity: concentration at 4 h (ng/g)
Write the answer as a number in ng/g, unit excluded.

Query: Read the entry NC(=O)c1cccc2cn(-c3ccc([C@@H]4CCCNC4)cc3)nc12 [Niraparib] and write its reported concentration at 4 h.
Reply: 610

---

- measurementProtocol: MALDI MSI of brain sections, biodistribution in healthy nonhuman primates
- testParameters: male, rhesus monkey, brain (coronal Region 1 sections), oral, 6 mg/kg, MALDI MSI Mean Conc. by brain region, NHP-2; Region 1; 3 sections; Fig. 1B
quantity: concentration at 4 h (ng/g)
Response body: numeric value in ng/g, unit text excluded.

Query: Find the measured concentration at 4 h of NC(=O)c1cccc2cn(-c3ccc([C@@H]4CCCNC4)cc3)nc12 [Niraparib] and report it.
Reply: 524
